All values here come from patent US11542259B2.

Molecular target: AXL (Homo sapiens (Human))
Sequence (P30530 26-894): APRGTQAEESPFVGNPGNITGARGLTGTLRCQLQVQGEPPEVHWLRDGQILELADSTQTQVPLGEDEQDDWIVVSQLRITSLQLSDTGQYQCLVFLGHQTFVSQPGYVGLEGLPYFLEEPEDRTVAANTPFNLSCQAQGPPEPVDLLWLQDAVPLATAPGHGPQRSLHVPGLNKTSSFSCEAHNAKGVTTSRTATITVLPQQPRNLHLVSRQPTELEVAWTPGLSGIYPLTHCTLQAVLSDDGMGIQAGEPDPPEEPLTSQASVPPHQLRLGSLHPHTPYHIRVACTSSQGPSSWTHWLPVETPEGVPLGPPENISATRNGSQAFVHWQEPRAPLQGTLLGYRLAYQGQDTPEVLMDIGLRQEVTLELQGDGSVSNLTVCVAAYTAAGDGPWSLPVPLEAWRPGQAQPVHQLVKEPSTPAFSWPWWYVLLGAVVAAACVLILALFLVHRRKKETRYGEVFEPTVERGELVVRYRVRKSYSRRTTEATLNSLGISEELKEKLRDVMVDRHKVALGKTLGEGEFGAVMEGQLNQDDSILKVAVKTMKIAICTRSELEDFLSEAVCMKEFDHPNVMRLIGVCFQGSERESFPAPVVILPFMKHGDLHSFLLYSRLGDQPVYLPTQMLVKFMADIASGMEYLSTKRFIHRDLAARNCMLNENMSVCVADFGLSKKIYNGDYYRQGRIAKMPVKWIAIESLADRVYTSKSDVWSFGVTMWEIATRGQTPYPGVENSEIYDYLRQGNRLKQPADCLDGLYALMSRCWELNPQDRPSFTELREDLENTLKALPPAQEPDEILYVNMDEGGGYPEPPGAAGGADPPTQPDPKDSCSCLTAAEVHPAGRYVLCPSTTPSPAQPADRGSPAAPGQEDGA
Assay: AXL autophosphorylation ELISA in A-172 cells
Type: cell-based
Conditions: cellular, Gas6 stimulated
pIC50: −log10 of the molar value.
Quick reference for pIC50 among some compounds
OBSERVABLE: pIC50

- COMPOUND: "COc1cc2nccc(Oc3ccc(NC(=O)C4(C(=O)Nc5ccc(F)cc5)CC4)cc3)c2cc1S(C)(=O)=O [Compound 210]"
  MEASURED: "7.00 to 8.00"
- COMPOUND: "O=C(Nc1ccc(F)cc1)C1(C(=O)Nc2ccc(Oc3ccnc4cc(OCCO)c(-c5ncco5)cc34)cc2)CC1 [Compound 50]"
  MEASURED: "≥ 8.00"
- COMPOUND: "NC(=O)c1ccc2nccc(Oc3ccc(NC(=O)C4(C(=O)Nc5ccc(F)cc5)CC4)cc3)c2c1 [Compound 58]"
  MEASURED: "7.00 to 8.00"
- COMPOUND: "COc1cc2nccc(Oc3ccc(NC(=O)C4(C(=O)Nc5ccc(F)cc5)CC4)cc3)c2cc1-c1ccc(C)o1 [Compound 180]"
  MEASURED: "≥ 8.00"
- COMPOUND: "COC(=O)Nc1cc2c(Oc3ccc(NC(=O)C4(C(=O)Nc5ccc(F)cc5)CC4)cc3)ccnc2cc1OC [Compound 280]"
  MEASURED: "≥ 8.00"
- COMPOUND: "COc1cc2nccc(Oc3ccc(NC(=O)C4(C(=O)Nc5ccc(F)cc5)CC4)cc3)c2cc1-c1cccc(C#N)c1F [Compound 175]"
  MEASURED: "7.00 to 8.00"
- COMPOUND: "COC(=O)Nc1ccc2c(Oc3ccc(NC(=O)C4(C(=O)Nc5ccc(F)cc5)CC4)cc3)ccnc2c1 [Compound 282]"
  MEASURED: "6.52 to 7.00"

====

Quick reference for pIC50 among some compounds
Biological target: KDR (Homo sapiens (Human))
Sequence (P35968 20-1356): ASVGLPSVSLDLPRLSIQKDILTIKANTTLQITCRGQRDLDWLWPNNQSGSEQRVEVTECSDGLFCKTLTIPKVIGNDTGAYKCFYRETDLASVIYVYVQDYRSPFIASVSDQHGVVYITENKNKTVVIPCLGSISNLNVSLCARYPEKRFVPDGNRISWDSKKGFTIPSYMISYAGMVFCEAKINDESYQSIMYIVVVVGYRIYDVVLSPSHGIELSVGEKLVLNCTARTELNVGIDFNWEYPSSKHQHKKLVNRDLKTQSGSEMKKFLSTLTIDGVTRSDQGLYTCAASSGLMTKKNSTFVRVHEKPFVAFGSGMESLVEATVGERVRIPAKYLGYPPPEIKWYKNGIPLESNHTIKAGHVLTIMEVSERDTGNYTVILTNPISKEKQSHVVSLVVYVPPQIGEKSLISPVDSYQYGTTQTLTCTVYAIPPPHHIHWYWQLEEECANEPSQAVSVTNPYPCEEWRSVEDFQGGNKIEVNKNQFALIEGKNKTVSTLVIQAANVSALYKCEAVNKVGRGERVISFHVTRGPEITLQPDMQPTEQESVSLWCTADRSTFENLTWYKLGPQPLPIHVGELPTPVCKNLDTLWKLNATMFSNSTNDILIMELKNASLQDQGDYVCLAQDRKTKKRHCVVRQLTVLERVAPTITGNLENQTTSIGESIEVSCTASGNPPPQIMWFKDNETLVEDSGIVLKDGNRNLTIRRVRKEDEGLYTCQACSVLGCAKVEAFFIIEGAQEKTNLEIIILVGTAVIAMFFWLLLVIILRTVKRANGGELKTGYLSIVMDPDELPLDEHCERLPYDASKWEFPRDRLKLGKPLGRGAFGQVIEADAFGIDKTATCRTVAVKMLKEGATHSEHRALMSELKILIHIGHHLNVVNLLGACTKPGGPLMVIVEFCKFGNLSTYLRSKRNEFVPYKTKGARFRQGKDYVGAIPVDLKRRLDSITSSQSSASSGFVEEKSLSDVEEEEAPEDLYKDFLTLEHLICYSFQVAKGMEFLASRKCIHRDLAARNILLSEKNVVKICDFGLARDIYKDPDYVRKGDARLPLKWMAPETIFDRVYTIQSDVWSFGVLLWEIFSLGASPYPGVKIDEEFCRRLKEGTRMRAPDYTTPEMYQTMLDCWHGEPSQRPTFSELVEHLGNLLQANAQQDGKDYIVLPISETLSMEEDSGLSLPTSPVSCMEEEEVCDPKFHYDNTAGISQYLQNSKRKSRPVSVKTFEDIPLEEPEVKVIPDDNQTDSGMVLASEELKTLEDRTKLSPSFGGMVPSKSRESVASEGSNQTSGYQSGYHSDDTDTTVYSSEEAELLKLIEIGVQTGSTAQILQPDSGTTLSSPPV
Test: KDR autophosphorylation ELISA in HUVEC cells
Conditions: cellular, VEGF165 stimulated
pIC50: −log10 of the molar value.

- COMPOUND: "CO/N=C(\\C)c1cc2c(Oc3ccc(NC(=O)C4(C(=O)Nc5ccc(F)cc5)CC4)cc3)ccnc2cc1OC [Compound 35]"
  pIC50: "6.52 to 7.00"
- COMPOUND: "Cc1cc2c(Oc3ccc(NC(=O)C4(C(=O)Nc5ccc(F)cc5)CC4)cc3F)ccnc2cc1C(N)=O [Compound 293]"
  pIC50: "7.00 to 8.00"
- COMPOUND: "CCNC(=O)c1cc2c(Oc3ccc(NC(=O)C4(C(=O)Nc5ccc(F)cc5)CC4)cc3)ccnc2cc1OC [Compound 9]"
  pIC50: "≥ 8.00"
- COMPOUND: "CC(O)COc1cc2nccc(Oc3ccc(NC(=O)C4(C(=O)Nc5ccc(F)cc5)CC4)cc3)c2cc1-c1ncco1 (stereo not drawn) [Compound 125]"
  pIC50: "7.00 to 8.00"
- COMPOUND: "CNC(=O)c1cc2nccc(Oc3cc(F)c(NC(=O)C4(C(=O)Nc5ccc(F)cc5)CC4)cc3F)c2cc1C [Compound 290]"
  pIC50: "6.52 to 7.00"
- COMPOUND: "CC1NC(=O)c2cc3c(Oc4ccc(NC(=O)C5(C(=O)Nc6ccc(F)cc6)CC5)cc4)ccnc3cc2O1 (stereo not drawn) [Compound 92]"
  pIC50: "6.52 to 7.00"
- COMPOUND: "CNC(=O)Nc1ccc2c(Oc3ccc(NC(=O)C4(C(=O)Nc5ccc(F)cc5)CC4)cc3)ccnc2c1 [Compound 281]"
  pIC50: "6.52 to 7.00"
- COMPOUND: "COC(=O)Nc1cc2c(Oc3ccc(NC(=O)C4(C(=O)Nc5ccc(F)cc5)CC4)cc3)ccnc2cc1OC [Compound 280]"
  pIC50: "≥ 8.00"
- COMPOUND: "Cc1cc2c(Oc3cc(F)c(NC(=O)C4(C(=O)Nc5ccc(F)cc5)CC4)cc3F)ccnc2cc1C(N)=O [Compound 294]"
  pIC50: "7.00 to 8.00"
- COMPOUND: "COc1cc2nccc(Oc3ccc(NC(=O)C4(C(=O)Nc5ccc(F)cc5)CC4)cc3)c2cc1S(N)(=O)=O [Compound 206]"
  pIC50: "≥ 8.00"
- COMPOUND: "CO/N=C/c1cc2c(Oc3ccc(NC(=O)C4(C(=O)Nc5ccc(F)cc5)CC4)cc3)ccnc2cc1OC [Compound 193]"
  pIC50: "6.52 to 7.00"
- COMPOUND: "COC(=O)Nc1ccc2c(Oc3ccc(NC(=O)C4(C(=O)Nc5ccc(F)cc5)CC4)cc3)ccnc2c1 [Compound 282]"
  pIC50: "< 6.52"
- COMPOUND: "COC(=O)c1cc2nccc(Oc3ccc(NC(=O)C4(C(=O)Nc5ccc(F)cc5)CC4)cc3)c2cc1C [Compound 140]"
  pIC50: "7.00 to 8.00"
- COMPOUND: "O=C(Nc1ccc(F)cc1)C1(C(=O)Nc2ccc(Oc3ccnc4ccc(-c5nnco5)cc34)cc2)CC1 [Compound 221]"
  pIC50: "6.52 to 7.00"
- COMPOUND: "COc1cc2nccc(Oc3ccc(NC(=O)C4(C(=O)Nc5ccc(F)cc5)CC4)cc3)c2cc1C(=O)NCCN1CCOCC1 [Compound 12]"
  pIC50: "≥ 8.00"

====

Biological target: Human Axl (residues H473-A894 with Q764R) (Homo sapiens (Human), UniProt P30530, Q764R)
Sequence (P30530 473-894 Q764R): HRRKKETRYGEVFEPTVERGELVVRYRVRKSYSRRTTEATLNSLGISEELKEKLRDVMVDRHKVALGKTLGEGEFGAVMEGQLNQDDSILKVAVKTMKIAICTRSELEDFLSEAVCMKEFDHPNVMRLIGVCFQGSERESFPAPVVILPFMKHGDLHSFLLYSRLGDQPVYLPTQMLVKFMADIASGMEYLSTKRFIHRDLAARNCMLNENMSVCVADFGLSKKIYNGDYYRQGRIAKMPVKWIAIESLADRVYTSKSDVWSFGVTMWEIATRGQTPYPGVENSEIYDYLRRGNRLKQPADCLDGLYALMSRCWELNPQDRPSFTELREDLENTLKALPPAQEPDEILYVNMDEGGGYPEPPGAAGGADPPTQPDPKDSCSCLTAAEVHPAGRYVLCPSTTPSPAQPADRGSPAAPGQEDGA
Experiment: Human AXL kinase assay (33P radiometric, KinaseProfiler)
Format: biochemical
Conditions: 10 μM ATP
Protocol: Kinase activity and compound inhibition were investigated using the ^33P-Phosphoryl transfer radiometric kinase assay, performed using the KinaseProfiler™ service of Eurofins Pharma Discovery Services UK Limited. Dose-response experiments were performed using nine compound concentrations in a 96-well microtiter plate. […] IC50 values were calculated by nonlinear regression analysis using the sigmoidal dose-response (variable slope) curve fit on XLFit version 5.3 (ID Business Solutions). […]
pIC50: −log10 of the molar value.
Quick reference for pIC50 among some molecules

- MOLECULE: "O=C(O)c1ccc2c(Oc3ccc(NC(=O)C4(C(=O)Nc5ccc(F)cc5)CC4)cc3)ccnc2c1 [Compound 163]"
  pIC50: "6.00 to 7.00"
- MOLECULE: "COc1cc2nccc(Oc3ccc(NC(=O)C4(C(=O)Nc5ccc(F)cc5)CC4)cc3)c2cc1-c1ccccn1 [Compound 176]"
  pIC50: "≥ 8.00"
- MOLECULE: "COc1cc2nccc(Oc3ccc(NC(=O)C4(C(=O)Nc5ccc(F)cc5)CC4)cc3F)c2cc1C(N)=O [Compound 133]"
  pIC50: "≥ 8.00"
- MOLECULE: "COc1cc2c(Oc3ccc(NC(=O)C4(C(=O)Nc5ccc(F)cc5)CC4)cc3)ccnc2cc1C(N)=O [Compound 152]"
  pIC50: "7.00 to 8.00"
- MOLECULE: "COC(=O)c1cc2c(Oc3ccc(NC(=O)C4(C(=O)Nc5ccc(F)cc5)CC4)cc3F)ccnc2cc1OC [Compound 129]"
  pIC50: "≥ 8.00"
- MOLECULE: "COc1cc2nccc(Oc3ccc(NC(=O)C4(C(=O)Nc5ccc(F)cc5)CC4)cc3)c2cc1-c1ccn[nH]1 [Compound 185]"
  pIC50: "7.00 to 8.00"
- MOLECULE: "COc1cc2nccc(Oc3ccc(NC(=O)C4(C(=O)Nc5ccc(F)cc5)CC4)cc3Cl)c2cc1C(N)=O [Compound 132]"
  pIC50: "≥ 8.00"
- MOLECULE: "COC(=O)c1cc2c(Oc3ccc(NC(=O)C4(C(=O)Nc5ccc(F)cc5)CC4)cc3Cl)ccnc2cc1OC [Compound 128]"
  pIC50: "≥ 8.00"
- MOLECULE: "COc1cc2nccc(Oc3ccc(NC(=O)C4(C(=O)Nc5ccc(F)cc5)CC4)cc3)c2cc1-c1nnco1 [Compound 220]"
  pIC50: "≥ 8.00"
- MOLECULE: "COc1cc2nccc(Oc3ccc(NC(=O)C4(C(=O)Nc5ccc(F)cc5)CC4)cc3)c2cc1N1CCC1 [Compound 198]"
  pIC50: "7.00 to 8.00"
- MOLECULE: "COCCOc1cc2nccc(Oc3ccc(NC(=O)C4(C(=O)Nc5ccc(F)cc5)CC4)cc3)c2cc1C(N)=O [Compound 103]"
  pIC50: "7.00 to 8.00"
- MOLECULE: "NC(=O)c1ccc2c(Oc3ccc(NC(=O)C4(C(=O)Nc5ccc(F)cc5)CC4)cc3)ccnc2c1 [Compound 164]"
  pIC50: "≥ 8.00"
- MOLECULE: "Cc1cc2c(Oc3ccc(NC(=O)C4(C(=O)Nc5ccc(F)cc5)CC4)cc3)ccnc2cc1C(N)=O [Compound 142]"
  pIC50: "≥ 8.00"
- MOLECULE: "CNC(=O)c1ccc2c(Oc3ccc(NC(=O)C4(C(=O)Nc5ccc(F)cc5)CC4)cc3)ccnc2c1 [Compound 165]"
  pIC50: "≥ 8.00"
- MOLECULE: "COc1cc2nccc(Oc3ccc(NC(=O)C4(C(=O)Nc5ccc(F)cc5)CC4)cc3)c2cc1-c1ccc(C)o1 [Compound 180]"
  pIC50: "7.00 to 8.00"
- MOLECULE: "CNC(=O)c1cc2nccc(Oc3ccc(NC(=O)C4(C(=O)Nc5ccc(F)cc5)CC4)cc3)c2cc1C [Compound 143]"
  pIC50: "7.00 to 8.00"
- MOLECULE: "COc1cc2nccc(Oc3ccc(NC(=O)C4(C(=O)Nc5ccc(F)cc5)CC4)cc3)c2cc1C1(O)CNC1 [Compound 197]"
  pIC50: "7.00 to 8.00"
- MOLECULE: "COc1cc2nccc(Oc3ccc(NC(=O)C4(C(=O)Nc5ccc(F)cc5)CC4)cc3)c2cc1N1CC(F)(F)C1 [Compound 200]"
  pIC50: "7.00 to 8.00"
- MOLECULE: "COc1cc2nccc(Oc3ccc(NC(=O)C4(C(=O)Nc5ccc(F)cc5)CC4)cc3)c2cc1C(=O)NC1COC1 [Compound 13]"
  pIC50: "7.00 to 8.00"
